# reported log10(TGI); entries follow
# System: MOLT-4 leukemia
# procedureText: NCI tumour cell line growth inhibition, 48 h
Hello, just confirming the data are log10 of TGI with units of µM.

C=CCOC(=O)N1[C@H]2C#C/C=C\C#C[C@]3(O)C(=O)C[C@H](C)[C@]24O[C@]43C2=CC(=O)C=CC21OC (stereo not given in full) ... 1.72
COc1ccc(C(=O)c2cc(OC)c(OC)c(OC)c2)cc1 ... 1.31
COc1ccc(/C=C2\CCCC(CN(C)C)C2=O)cc1 (stereo not given) ... 0.41

Q) Which measured log10(TGI) value corresponds to O=C1c2ccccc2-c2c1c1ccccc1c(=O)n2CCCCNCCCn1c2c(c3ccccc3c1=O)C(=O)c1ccccc1-2 ?
A) -0.34

Q) Which measured log10(TGI) value corresponds to C=CC[n+]1c(/C=C/C=C2\N(C)c3ccccc3C2(C)C)sc2ccc(OC)cc21 ?
A) 0.76

Q) Which measured log10(TGI) value corresponds to CC[C@]1(O)CC(OC2CC(N(C)C)C(O)C(C)O2)c2c(cc3c(c2O)C(=O)c2c(O)cccc2C3=O)[C@@H]1C(=O)OC (stereo not given in full) ?
A) -0.17

Q) Which measured log10(TGI) value corresponds to CC(C)(C)c1cc(CC2C(=O)c3ccccc3C2=O)cc(C(C)(C)C)c1O ?
A) 0.98

Q) Which measured log10(TGI) value corresponds to CC(=O)Nc1ccc(Nc2cc(=O)[nH]c(=O)[nH]2)cc1 ?
A) 1.57

Q) Which measured log10(TGI) value corresponds to CN(C)CCOc1cccc2c1C(=O)c1ccccc1C2=O ?
A) 1.33

---

# Tested on: UO-31 renal
# procedureText: NCI tumour cell line growth inhibition, 48 h
reportedProperty: GI50

In the examples that follow, each entry is paired with its recorded GI50.
Cc1ccc([N+](=O)[O-])cc1NC(=O)Nc1cccc(F)c1 ... 3360 nM
O=C1c2ccccc2-c2c1c1ccccc1c(=O)n2CCCCNCCCn1c2c(c3ccccc3c1=O)C(=O)c1ccccc1-2 ... 55.7 nM

The record that follows has no GI50 shown yet.
Q) Which measured GI50 value corresponds to OC(c1cccc(-n2ccc(C(F)(F)F)n2)c1)c1cnccc1NC1CCCCCC1 (stereo not drawn) ?
A) 1370 nM

---

# Tested on: 786-0 renal
# procedureText: NCI tumour cell line growth inhibition, 48 h
reportedProperty: TGI (µM)
Give the quantity in µM, number only.

Q) Which measured TGI value corresponds to CC(C)(C)c1cc(CC2C(=O)c3ccccc3C2=O)cc(C(C)(C)C)c1O ?
A) 21.1

Q) Which measured TGI value corresponds to CS/C(=N\C(=S)N(C)C)N(c1ccccc1)c1nc(=[N+](C)C)ss1 ?
A) 39.3

Q) Which measured TGI value corresponds to COc1ccc2nc3cc(Cl)ccc3c(NCCCN(Cc3cc(OC)c(OC)c(OC)c3)Cc3cc(OC)c(OC)c(OC)c3)c2c1 ?
A) 32.1

---

# Tested on: HS 578T breast
# procedureText: NCI tumour cell line growth inhibition, 48 h
*1 amine or outer side, *2 acyl side, *3 side chain or, on linkers, in order; H or OH if unused. Where a SMILES comes first, the peptide text is derived from it. [ ]: non-standard residue; d: D form. The star is where a group is joined. X31 = CC(=O)N(C)SCC(N[*:1])C(=O)[*:2]; X47 = CC(=O)N(C)SCC(N*)/C(O)=N\O; Cbz = O=C(OCc1ccccc1)*; Bn = c1ccc(C*)cc1; For = O=C*
# reported TGI; entries follow

In the examples that follow, each entry is paired with its recorded TGI.
CCCCC[C@H](O)/C=C/[C@@H]1[C@@H](C/C=C\CCCC(=O)O)[C@@H](O)C[C@H]1O ... > 100 µM
Cc1cccc(C(C)C)c1NC(=O)C(=O)CC(=O)c1sc(Nc2ccccc2Cl)nc1C ... > 100 µM

Q) Which measured TGI value corresponds to COc1cccc(C2c3cc4c(cc3OC(C)(N3CCCC3)C2C)OCO4)c1OC (stereo not drawn) ?
A) 52.5 µM

Q) Which measured TGI value corresponds to CC(=O)N(C)SCC(NC(=O)C(Cc1ccccc1)NC(=O)OCc1ccccc1)C(=O)NC(Cc1ccccc1)C(=O)NC(Cc1cn(C=O)c2ccccc12)C(=O)NC(CCCCNC(=O)OCc1ccccc1)C(=O)NC(C(=O)NC(CSN(C)C(C)=O)/C(O)=N\O)C(C)OCc1ccccc1 (stereo not drawn) (Cbz-F[X31]FW(For)K(Cbz)T(Bn)-X47; configuration not given here) ?
A) > 100 µM

Q) Which measured TGI value corresponds to NCC(=O)NC1(c2cc3ccccc3s2)CCCCC1 ?
A) 99.5 µM

Q) Which measured TGI value corresponds to CCOC(=O)C1(C(N)=O)C(=O)c2ccncc2C1=O (stereo not drawn) ?
A) > 100 µM

Q) Which measured TGI value corresponds to O=C1OC(c2ccccc2)=N/C1=C\c1cccnc1 ?
A) > 100 µM

Q) Which measured TGI value corresponds to FC(F)(F)c1nc(N2CCCC2)ncc1-c1nnnn1-c1ccc(Cl)cc1 ?
A) > 100 µM

---

# Tested on: OVCAR-8 ovarian
# procedureText: NCI tumour cell line growth inhibition, 48 h
# reported GI50; entries follow

C=C1C(=O)O[C@H]2[C@H]1CC/C(CNC(=O)Cc1c[nH]c3ccccc13)=C\CC[C@@]1(C)O[C@@H]21 ... 1.12 µM
CCCCC[C@H](O)/C=C/[C@@H]1[C@@H](C/C=C\CCCC(=O)O)[C@@H](O)C[C@H]1O ... > 100 µM
O=C(NC1CCN(Cc2ccccc2)CC1)c1cc(-c2ccncc2)nc2ccc(Cl)cc12 ... 22.5 µM
COc1ccc(OC)c(/C=N/NC(=O)Cc2csc3nc(-c4ccc(Br)cc4)cn23)c1 ... 11.6 µM
COc1ccccc1NC(=O)c1sc2nc3c(cc2c1N)C(=O)CCC3 ... 3.97 µM
CC(=O)N[C@@H](Cc1ccc(OP(=O)(O)O)cc1)C(=O)N[C@H]1CCC(=O)N2CCC[C@@H](C(=O)NCc3ccc(Cl)cc3)N2C1=O ... > 25 µM
COc1ccc2[nH]c(=O)c3c4ccccc4cn3c2c1 ... 1.09 µM
CC1(C)N=C(N)N=C(N)N1c1cccc(CCCCc2cccc(S(=O)(=O)F)c2)c1 ... 4.84 µM

Q) Given the entry COC(=O)CCC(=O)C(=O)OC , what GI50 was observed with OVCAR-8 ovarian?
A) 63200 µM

---

# System: NCI-H460 lung
# procedureText: NCI tumour cell line growth inhibition, 48 h
Classify by measured TGI: T if it is equal to or exceeds 30 µM, F if it is smaller.

Below are worked cases with known answers.
CC(=O)NCCc1c2c(c3nccc4c3c1Nc1ccccc1-4)OCS2 ... F
COc1cc(NS(C)(=O)=O)ccc1Nc1c2ccc([N+](=O)[O-])cc2nc2c(C)cccc12 ... F
Cn1cc(-c2ccc3c(Nc4cccc(NC(=O)Nc5cccc(F)c5)c4)ncnc3c2)cn1 ... F
NC1=NC(=O)/C(=C/c2ccccc2[N+](=O)[O-])C(N)=N1 ... T
CCCCCCCC1C(C)c2c([nH]c3ccccc23)C2C(=O)N(c3ccc(OC)cc3)C(=O)C21 (centres undefined) ... F
CC[C@@]1(N(C)C)C(=O)OCc2c1cc1n(c2=O)Cc2cc3ccccc3nc2-1 ... T

Q) Hi, just wondering whether CC[C@]12CCCN3CCc4c(n(c5ccccc45)C(=O)C1)[C@@H]32 shows TGI of 30 µM or higher.
A) T

Q) Hi, just wondering whether CCCCCC(C)(C)CCC(=O)OC1OC(COC2OC(COC3OC(CO)C(O)C(O)C3O)C(O)C(O)C2O)C(O)C(O)C1O (centres undefined) shows TGI of 30 µM or higher.
A) T

Q) Hi, just wondering whether CCC(C)n1c(C)nc2c1C(=O)c1ccccc1C2=O (centres undefined) shows TGI of 30 µM or higher.
A) T

Q) Hi, just wondering whether O=C(Nc1nnc(-c2ccccc2)o1)C(SC(=S)N1CCCCC1)c1ccccc1 (centres undefined) shows TGI of 30 µM or higher.
A) T

Q) Hi, just wondering whether CC(C)(C)NNC(=O)/C(=C/c1ccc([N+](=O)[O-])cc1)NC(=O)c1ccccc1 shows TGI of 30 µM or higher.
A) T

Q) Hi, just wondering whether C=CC[n+]1c(/C=C/C=C2\N(C)c3ccccc3C2(C)C)sc2ccc(OC)cc21 shows TGI of 30 µM or higher.
A) F

Q) Hi, just wondering whether CC(=O)OC1C(C)OC(Oc2c(C)c3c4c(c2O)[C@@H](C)CC[C@@H]4[C@@H](C)C[C@H]3C=C(C)C)C(O)C1O (some centres undefined) shows TGI of 30 µM or higher.
A) T

---

# System: HOP-62 NSCLC
# procedureText: NCI tumour cell line growth inhibition, 48 h
# reported TGI; entries follow

Q) Which measured TGI value corresponds to NCCSc1nc2ccccc2s1 ?
A) 62.3 µM

Q) Which measured TGI value corresponds to O=P1(C(O)/C=C/c2ccccc2)N(Cc2ccccc2)[C@H](c2ccccc2)[C@@H](c2ccccc2)N1Cc1ccccc1 (stereo partly drawn) ?
A) > 93.3 µM
